Entries and their measured composite z-score follow.
- System: Inhibin beta A chain (activin A)
- Run description: INHBA (activin A) binders on microarrays, primary screen, biochemical, small-molecule microarray, 635 nm fluorescence scan (AID 1107);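 further: mouse activin A protein probed at 4.33 µg/mL on printed slides; score merges bound-protein fluorescence near 667 nm with spot signal-to-noise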
- Recorded conditions: small-molecule microarray binding, higher = more signal
Give the figure only, with no unit attached.

Check out these entries, answers already filled in.
COC(=O)C(CC#Cc1ccc2c(c1)[C@]1(C(=O)N2)[C@H](C(=O)NC[C@H](O)c2ccccc2)[C@H]2C(=O)O[C@H](c3ccccc3)[C@H](c3ccccc3)N2[C@@H]1c1ccc(O)cc1)C(=O)OC: -0.137
C=C(CCCC)/C(=C/C[C@@H](OC(C)=O)c1cccc(OCCO)c1)c1cc(C(=O)OC)ccc1OC: 0.863
CC(C)Cc1ccc(CN2CC[C@@H](NC(=O)c3ccccc3)C2)cc1: 0.631
COc1cc(Cc2cc3c(c(CCc4ccccc4)n2)[Si](C(C)C)(C(C)C)O[C@H]3c2ccccc2)cc(OC)c1OC: 0.87
CCCC1(C(=O)OC)C=C2C(=C(C(C)C)C(=O)C2C)CN1 (centres undefined): 1.17
CCCCC=C[C@@H](NC(=O)C(C)(C)C)c1ccccc1: 0.173

IN: Report composite z-score for `CCCCC(=C=CC[C@@H](O)c1ccc(OCCO)cc1)CCO`
OUT: 1.09

IN: Report composite z-score for O=C1OCCC/C=C\[C@H]2OC34C=CCN(Cc5ccccc5)C(=O)[C@H]3N(CCO)C(=O)[C@@H]4C12 (some centres undefined)
OUT: 0.765

IN: Report composite z-score for `CC(C)(C)OC(=O)CC[C@]1(C(=O)N2CCOCC2)COC(c2ccc(OCCCO)cc2)=N1`
OUT: 0.309

---

- Run description: modulators of S6 phosphorylation in cells, primary screen, cell-based, A549, cytoblot, luminescence, serum-stimulated (AID 1158);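 further: serum-stimulated A549 lung adenocarcinoma cells; signal is phosphorylated S6 detected by cytoblot immunostaining with HRP secondary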
- Recorded conditions: A549 phospho-S6 cytoblot, 5 h, higher = more signal
Please use the following z-score ranges when assigning a class: low group: < -0.5; middle group: ≥ -0.5 and < 0.5; high group: ≥ 0.5

IN: Each compound maps to one class by z-score. Which class for CC(C)c1ccc(NN2C(C(O)C3CCCCC3)C=CC3C(=O)N(c4ccccc4)C(=O)C32)cc1 (stereo not given) ?
OUT: low group

IN: Each compound maps to one class by z-score. Which class for `COCCCNC(=O)[C@]1(Cc2ccccc2N=[N+]=[N-])N=C(c2ccc(OCCCO)cc2)O[C@@H]1c1ccccc1` ?
OUT: middle group

IN: Each compound maps to one class by z-score. Which class for `C=CC[C@@]1(C(=O)NCCCOC)N=C(c2ccc(OCCCO)cc2)O[C@@H]1c1ccccc1CN=[N+]=[N-]` ?
OUT: high group

IN: Each compound maps to one class by z-score. Which class for `CO[C@H]1O[C@H](CO)[C@@H](OC(=O)CCc2ccccc2)[C@@H]2OC(=O)[C@@H](Cc3ccc4ccccc4c3)C/C=C/C[C@H](Cc3ccc4ccccc4c3)C(=O)O[C@@H]12` ?
OUT: high group

IN: Each compound maps to one class by z-score. Which class for `C=CCNC(=O)[C@@H]1[C@H]2C(=O)O[C@H](c3ccccc3)[C@H](c3ccccc3)N2[C@H](c2ccc(O)cc2)[C@@]12C(=O)Nc1ccc(C#CC3=CCCCC3)cc12` ?
OUT: middle group

IN: Each compound maps to one class by z-score. Which class for `C=C(COC)C(=O)CC[C@@H](OC(=O)c1ccccc1-c1ccccc1C(=O)O)c1ccccc1OCCO` ?
OUT: low group

IN: Each compound maps to one class by z-score. Which class for CN1C(=O)C2C(C1=O)C1C=C(CCCO)C2C(C2CC2)N1C (stereo not given) ?
OUT: high group

IN: Each compound maps to one class by z-score. Which class for `COc1ccc(CCNC(=O)[C@@H]2c3ccccc3C(=O)N(C(C)C)[C@H]2c2ccc(CO)cc2)cc1` ?
OUT: middle group

IN: Each compound maps to one class by z-score. Which class for `COC(=O)[C@]1(Cc2ccccc2N=[N+]=[N-])N=C(c2ccc(OCCCO)cc2)O[C@@H]1c1ccccc1CN=[N+]=[N-]` ?
OUT: high group

IN: Each compound maps to one class by z-score. Which class for O=C1C2C=CC(C(O)C3CC=CCC3)N(Nc3ccc([N+](=O)[O-])cc3)C2C(=O)N1c1ccccc1 (stereo not given) ?
OUT: low group
